test system: breast carcinoma F3II cells; test: Antiproliferative effect on growing F3II cells (toluidine test); type: cell-based, mouse; details: Mus musculus, 10% fetal bovine serum, 72 hs, read-out: IC50 72 hs
VALUE_TYPE: IC50 (µM)
Give just the number in µM; leave the unit off.

Challenge: For the compound CC(=O)OC[C@H]1O[C@@H](n2cnc3c(=O)[nH]c(N)nc32)[C@H](OC(C)=O)[C@@H]1OC(C)=O [Nucl 1, 2′,3′,5′-tri-O-acetyl-guanosine] , report IC50.
Response given: 68
